# STUDY_SYSTEM: hemoglobin (normal human adult blood) (Homo sapiens, UniProt P68871+P69905)
# Construct: Normal whole blood was collected from adult healthy donors; from tissue; host or cells: normal human whole blood (red blood cells), adult healthy donors
# Sequence (P69905 2-142 limits assumed): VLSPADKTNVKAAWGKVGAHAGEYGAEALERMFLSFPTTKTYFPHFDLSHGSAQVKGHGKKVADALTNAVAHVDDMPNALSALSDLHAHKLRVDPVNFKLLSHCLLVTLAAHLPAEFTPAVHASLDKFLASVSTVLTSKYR
# Sequence (P68871 2-147 limits assumed): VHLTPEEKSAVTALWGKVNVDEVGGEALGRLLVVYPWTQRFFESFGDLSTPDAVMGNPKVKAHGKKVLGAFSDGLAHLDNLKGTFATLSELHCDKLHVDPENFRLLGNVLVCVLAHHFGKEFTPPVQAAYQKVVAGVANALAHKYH
# METHOD_SUMMARY: Time-dependent oxygen equilibrium curve (OEC) studies in normal whole blood
# Format: cell-based
# RUN_PARAMETERS: 2 mM compound, 2% DMSO, normal human blood 20% hematocrit, 37° C., 1 h
Assign class by delta p50: not lower than -60% means MET; lower than -60% means NOT MET.

Reference set (5 entries):
>>> print(df.to_string())
                                   compound                              study_system  discrete_label
0  CC(C)n1nccc1-c1nn(C)c(=O)cc1COc1cccc(O)c1C=O  hemoglobin (normal human adult blood) (Homo sapiens, UniProt P68871+P69905)             MET
1  CC(C)n1nccc1-c1cn(C)c(=O)cc1COc1cccc(O)c1C=O  hemoglobin (normal human adult blood) (Homo sapiens, UniProt P68871+P69905)         NOT MET
2     CC(C)n1nccc1-c1ncccc1CSc1cccc(O)c1C=O  hemoglobin (normal human adult blood) (Homo sapiens, UniProt P68871+P69905)         NOT MET
3   CC(C)n1nccc1-c1ncccc1COc1ccn2nnnc2c1C=O  hemoglobin (normal human adult blood) (Homo sapiens, UniProt P68871+P69905)             MET
4  CC(C)n1nccc1-c1ncccc1COc1ccc2c(c1C=O)OCC2  hemoglobin (normal human adult blood) (Homo sapiens, UniProt P68871+P69905)             MET

Challenge: Answer whether delta p50 of CC(C)n1nccc1-c1ncccc1COc1ccc2c(c1C=O)C(O)C(F)(F)C2 (stereo not shown) is greater than or equal to -60%.
Response given: NOT MET

Challenge: delta p50 >= -60% for CC(C)n1nccc1-c1ncccc1COc1ccc2c(c1C=O)C(O)C(F)(F)O2 (stereo not shown) ?
Response given: NOT MET

Challenge: Hello, I need to know if CC(C)n1nccc1-c1ncccc1COc1ccc2ccoc2c1C=O has measured delta p50 not below -60%. Thanks!
Response given: NOT MET

Challenge: Does delta p50 meet or surpass -60% for CC(C)n1nccc1-c1ncccc1COc1ccc2c(c1C=O)CCS2(=O)=O ?
Response given: NOT MET

Challenge: Does delta p50 meet or surpass -60% for [2H]C(=O)c1c(O)cccc1OCc1cccnc1-c1ccnn1C(C)C ?
Response given: MET

Challenge: Does delta p50 meet or surpass -60% for CC(C)n1nccc1-c1ncccc1COc1ccc2c(c1C=O)OC(F)(F)O2 ?
Response given: NOT MET

Challenge: State whether the measured delta p50 reaches -60%, counting equality as reaching it, for CC(C)n1nccc1-c1nccc2c1[C@H](Oc1cccc(O)c1C=O)CO2 [Example 62b]
Response given: NOT MET
